procedure.summary: DPPH radical scavenging activity at 10 ug after 30 mins by TLC
Format: functional
The source made the active and inactive calls. No cut-off for these calls is given here.
measured.endpoint: Activity

> print(dat)
                                  structure    result
1  CC/C=C/CCCCCCCCCCCCC[C@@]1(O)CC(=O)C=C[C@@H]1O  inactive
2  CC/C=C/CCCCCCCCCCCCCCC[C@]1(O)CC(=O)C=C[C@@H]1O  inactive
3  CC/C=C/CCCCCCCCCCCCCCC[C@@]1(O)CC(=O)C=C[C@@H]1O  inactive
